Kindly supply the reported %Inh values for the records listed here.
# System: WNK2;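 further: KINOMEscan kinase panel screen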
# measurement-setup: concentration: 1 μM, replicates: in singlicate; n = 1
Note: unit % is implicit; provide only the numeric part.

Challenge: Query (compound): CCn1c(-c2nonc2N)nc2c(-c3ccccc3)ncc(OCCCN)c21.O=C(O)C(F)(F)F.O=C(O)C(F)(F)F [GSK260205] ; field requested: %Inh
Response given: 14

Challenge: Query (compound): Nc1ncc(-c2cn[nH]c2)c2scc(-c3ccc4c(c3)CCN4C(=O)Cc3ccccc3)c12 [GSK2593067] ; field requested: %Inh
Response given: 31

Challenge: Query (compound): COc1cccc(-c2nc(-c3ccccc3)[nH]c2-c2ccncc2)c1 [SB-610250] ; field requested: %Inh
Response given: 0

Challenge: Query (compound): COc1ccc(C)c(Nc2ccnc(Nc3ccc(-c4cnc[nH]4)cc3)n2)c1.Cl [GW784041] ; field requested: %Inh
Response given: 0

Challenge: Query (compound): CCn1cnc2c(NCc3ccccc3)ncnc21 [SKF-96418] ; field requested: %Inh
Response given: 0

Challenge: Query (compound): CSc1ccc(NC2=C(c3ccc(Cl)cc3)C(=O)NC2=O)cc1 [SB-317658] ; field requested: %Inh
Response given: 24

Challenge: Query (compound): COc1cc(Nc2ccnc3cc(-c4ccncc4)ccc23)cc(OC)c1OC.Cl [GW494610] ; field requested: %Inh
Response given: 4

Challenge: Query (compound): CCOc1nccc(-c2c(-c3ccc(F)cc3)ncn2C2CCNCC2)n1 [SB-249175] ; field requested: %Inh
Response given: 4

Challenge: Query (compound): Cl.Cl.NCC(NC(=O)c1cc(-c2cccnc2)c(-c2ccnc3[nH]ccc23)s1)c1ccccc1 (centres unmarked) [GSK1323434] ; field requested: %Inh
Response given: 0

Challenge: Query (compound): CN1CCN(Cc2ccc(NC(=O)Nc3ccc(N(C)c4ccnc(Nc5ccc(CS(C)(=O)=O)cc5)n4)cc3)cc2)CC1.Cl [GW827654] ; field requested: %Inh
Response given: 45

Challenge: Query (compound): COC(=O)Nc1nc2cc(Oc3ccc(NC(=O)Nc4cccc(SC)c4)cc3)ccc2[nH]1.Cl [GW697999] ; field requested: %Inh
Response given: 3

Challenge: Query (compound): Cn1cc(-c2ccc3c(c2)CCN3C(=O)Cc2cc(F)cc(C(F)(F)F)c2)c2c(N)ncnc21 [GSK2635225] ; field requested: %Inh
Response given: 10

Challenge: Query (compound): Cc1cccc(Nc2nc(N[C@H]3CCCC[C@H]3N)ncc2C(N)=O)c1.Cl [GSK986310] ; field requested: %Inh
Response given: 30

Challenge: Query (compound): COc1cc(Nc2nccc(N3CCC(NS(=O)(=O)c4ccc(NC(C)=O)cc4)CC3)n2)cc(OC)c1OC [GSK1379825] ; field requested: %Inh
Response given: 16

Challenge: Query (compound): CC(C)(C)c1ccc(C(=O)Nc2cn3cc(-n4ccnc4)ccc3n2)cc1 ; field requested: %Inh
Response given: 3

Challenge: Query (compound): CN(c1ccc(NC(=O)N2CCN(CCCN3CCOCC3)CC2)cc1)c1ccnc(Nc2ccc(CS(C)(=O)=O)cc2)n1.Cl [GW830899] ; field requested: %Inh
Response given: 0

Challenge: Query (compound): Cc1ccc(NC(=O)c2ccc(Cl)c(Cl)c2)cc1-c1ccc(C(=O)Nc2ccncc2)cc1 [GSK1398460] ; field requested: %Inh
Response given: 0
